# credit: patent US20190367619A1

- Target Desc: T1, cynomolgus galectin-10-His, WGS isoform (cynomolgus)
- T1 construct: also called cynoGal10-WGS; not shown: His tag
- T1 chain: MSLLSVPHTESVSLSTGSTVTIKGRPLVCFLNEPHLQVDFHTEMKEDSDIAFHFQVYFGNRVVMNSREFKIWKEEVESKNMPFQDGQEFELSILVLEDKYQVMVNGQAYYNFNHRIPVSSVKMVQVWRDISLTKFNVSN
- Test Name: SPR Biacore T3000, mouse IgG1 captured
pKd: −log10 of the molar value.
Overview of reported pKd across a group of binders:
Quantity Measured: pKd

{"columns": ["Binder", "Quantity Measured", "Measured Value"],
 "data": [
  ["11F02 mouse IgG1 (antibody, V domains shown, VH and VL cloned in frame with mouse IgG1 constant domains; also called 11F02 mIgG1) VH: ELQVVESGGGLVQPGGSLRLSCAASGFTFSTNYMNWVRQAPGKGLEWVSGITSHGARTYYADSVKGRFTISRDNSKNTLYLQMNSLKPEDTALYYCARTDHASLDAWGQGTLVTVSS VL: QTVVTQEPSLSVSPGGTVTLTCGLSSGSVTSSNYPGWYQQKPGQAPRTLIYNTNSRYSGVPNRFSGSISGNKAALTITGAQPEDEADYYCALYMGSSSYNTVFGGGTHLTVL", "pKd", 8.30],
  ["10D02 mouse IgG1 (antibody, V domains shown, VH and VL cloned in frame with mouse IgG1 constant domains; also called 10D02 mIgG1) VH: EVQLVESGGGLVQPGGSLRVSCAASGFTFSSYYMSWVRQAPGKGLEWVSGIVTGGGRTHYTDSVKGRFTITRDNAKNTLYLQMNSLRPEDTALYYCARVNGVVTNYDYWGQGTQVTVSS VL: QAVLTQPPSVSGSPGKTVTISCAGTSSDVGYGNYVSWYQQLPGMAPKLLIYDVNKRASGITDRFSGSKSGNTASLTISGLQSEDEADYFCASYRSPNNVVFGQGTHLTVL", "pKd", 8.72],
  ["10B02 mouse IgG1 (antibody, V domains shown, VH and VL cloned in frame with mouse IgG1 constant domains; also called 10B02 mIgG1) VH: QVQLVESGGGLVQPGGSLRVSCAASGFTFSYHYMNWVRQAPGKGLEWVSGISAGGGRTYYADSVKGRFTISRDNAKNTLYLQMNSLNAEDTALYYCARVHGITNDYWGQGTQVTVSS VL: QSALTQPPSVSGSPGKTVTISCAGTSSDVGYGNYVSWYQQLPGMAPKLLIYEVNKRASGITDRFSGSKSGNTAFLTISGLQSEDEADYYCASYRNSNNWVFGGGTHLTVL", "pKd", 9.05],
  ["7B07 mouse IgG1 (antibody, V domains shown, VH and VL cloned in frame with mouse IgG1 constant domains; also called 7B07 mIgG1) VH: QVQLVESGGGLVQPGGSLRLSCAASGFTFRSYDMSWVRQAPGKGPEWVSAIKNGGGITYYADSVKGRFTISRDNAKNTLYLQMNSLKPEDTAVYYCATTHGIGTLGFGSWGQGTQVTVSS VL: SYELTQSASVSVALTQTAKITCDGNNIGSKSAQWYQQKPGQAPALVIYADEYRPEGIPERFSGSNSGNTATLIISGAQAEDEADYYCQVWDGSAAVFGRGTHLTVL", "pKd", 8.82]
]}
